- System: TTR
- TEST: TTR editing in HepG2 cells transfected with Spy Cas9 mRNA and dgRNAs (Table 6)
- Format: cell-based, human
- RUN CONDITIONS: HepG2 cells co-transfected with Spy Cas9 mRNA (SEQ ID NO:2) and dgRNAs
Attribute: Avg % Edit
Provide the reading as a plain figure in %.

Record excerpt, results attached:
SEQUENCE DATA	Avg % Edit, %
GGCGGCAAUGGUGUAGCGGC (tested as dual guide RNA, chemistry not given here) [CR003378]	8.16
AUUGGUGACGACAGCCGUGG (tested as dual guide RNA, chemistry not given here) [CR003389]	31.84
AGUCCCUCAUUCCUUGGGAU (tested as dual guide RNA, chemistry not given here) [CR003392]	14.64

Request: Name the recorded Avg % Edit of the sequence listed here: GCAACUUACCCAGAGGCAAA (tested as dual guide RNA, chemistry not given here) [CR003356]
Response: 9.39

Request: Name the recorded Avg % Edit of the sequence listed here: GGGGCUCAGCAGGGCGGCAA (tested as dual guide RNA, chemistry not given here) [CR003381]
Response: 6.81

* * *

Attribute: Avg % Insert
- System: TTR
- TEST: TTR editing in HEK293_Cas9 cells transfected with dgRNAs (Table 4)
- Type: cell-based, human
- RUN CONDITIONS: HEK293_Cas9 cells (constitutively express Spy Cas9) transfected with dgRNAs
Provide the reading as a plain figure in %.

SEQUENCE DATA	QUANTITY	REPORTED RESULT
GGCUGUCGUCACCAAUCCCA (tested as dual guide RNA, chemistry not given here) [CR003391]	Avg % Insert	0.61
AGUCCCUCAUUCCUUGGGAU (tested as dual guide RNA, chemistry not given here) [CR003392]	Avg % Insert	0.85
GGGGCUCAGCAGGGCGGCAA (tested as dual guide RNA, chemistry not given here) [CR003381]	Avg % Insert	3.82

Request: Name the recorded Avg % Insert of the sequence listed here: AGCCUUUCUGAACACAUGCA (tested as dual guide RNA, chemistry not given here) [CR003351]
Response: 28.42

Request: Name the recorded Avg % Insert of the sequence listed here: CUGGUAUUUGUGUCUGAGGC (tested as dual guide RNA, chemistry not given here) [CR003341]
Response: 6.73

Request: Name the recorded Avg % Insert of the sequence listed here: CGGCAAUGGUGUAGCGGCGG (tested as dual guide RNA, chemistry not given here) [CR003376]
Response: 1.35

Request: Name the recorded Avg % Insert of the sequence listed here: GCGGCGGGGGCCGGAGUCGU (tested as dual guide RNA, chemistry not given here) [CR003374]
Response: 0.81

* * *

- Test system: TTR
- TEST: TTR editing in HepG2 cells transfected with Spy Cas9 mRNA and dgRNAs (Table 6)
- Assay type: cell-based, human
- RUN CONDITIONS: HepG2 cells co-transfected with Spy Cas9 mRNA (SEQ ID NO:2) and dgRNAs
Attribute: Avg % Deletion
Provide the reading as a plain figure in %.

Record excerpt, results attached:
SEQUENCE DATA	Avg % Deletion, %
ACUGAGGAGGAAUUUGUAGA (tested as dual guide RNA, chemistry not given here) [CR003363]	14.07
CCGUGGUGGAAUAGGAGUAG (tested as dual guide RNA, chemistry not given here) [CR003386]	0.56
UGCACGGCCACAUUGAUGGC (tested as dual guide RNA, chemistry not given here) [CR003349]	3.91

Here's the next entry for you.
Request: Name the recorded Avg % Deletion of the sequence listed here: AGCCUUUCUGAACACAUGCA (tested as dual guide RNA, chemistry not given here) [CR003351]
Response: 25.57

* * *

- Test system: TTR
- TEST: TTR editing in primary human hepatocytes electroporated with Spy Cas9 protein loaded with dgRNAs (Table 7)
- Format: cell-based
- RUN CONDITIONS: dgRNA electroporated with Spy Cas9 protein (RNP)
QUANTITY: Avg % Edit (%)
Provide the reading as a plain figure in %.

Request: Name the recorded Avg % Edit of the sequence listed here: CACAUGCACGGCCACAUUGA (tested as dual guide RNA, chemistry not given here) [CR003350]
Response: 28.13

Request: Name the recorded Avg % Edit of the sequence listed here: AAGUGCCUUCCAGUAAGAUU (tested as dual guide RNA, chemistry not given here) [CR003368]
Response: 28.47

Request: Name the recorded Avg % Edit of the sequence listed here: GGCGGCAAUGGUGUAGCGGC (tested as dual guide RNA, chemistry not given here) [CR003378]
Response: 4.60

Request: Name the recorded Avg % Edit of the sequence listed here: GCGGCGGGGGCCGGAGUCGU (tested as dual guide RNA, chemistry not given here) [CR003374]
Response: 0.80

Request: Name the recorded Avg % Edit of the sequence listed here: GUGAGUCUGGAGAGCUGCAU (tested as dual guide RNA, chemistry not given here) [CR003360]
Response: 32.23

Request: Name the recorded Avg % Edit of the sequence listed here: GGGCGGCAAUGGUGUAGCGG (tested as dual guide RNA, chemistry not given here) [CR003379]
Response: 6.57

Request: Name the recorded Avg % Edit of the sequence listed here: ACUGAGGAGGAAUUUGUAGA (tested as dual guide RNA, chemistry not given here) [CR003363]
Response: 9.43

* * *

- Test system: TTR
- TEST: TTR editing in HEK293_Cas9 cells transfected with dgRNAs (Table 4)
- Type: cell-based, human
- RUN CONDITIONS: HEK293_Cas9 cells (constitutively express Spy Cas9) transfected with dgRNAs
Attribute: Avg % Insert
Provide the reading as a plain figure in %.

Record excerpt, results attached:
SEQUENCE DATA	QUANTITY	REPORTED RESULT
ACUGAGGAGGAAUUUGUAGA (tested as dual guide RNA, chemistry not given here) [CR003363]	Avg % Insert	14.77
CCCAGAGGCAAAUGGCUCCC (tested as dual guide RNA, chemistry not given here) [CR003355]	Avg % Insert	6.99
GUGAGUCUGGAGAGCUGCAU (tested as dual guide RNA, chemistry not given here) [CR003360]	Avg % Insert	2.70

Request: Name the recorded Avg % Insert of the sequence listed here: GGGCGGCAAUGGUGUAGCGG (tested as dual guide RNA, chemistry not given here) [CR003379]
Response: 5.34

Request: Name the recorded Avg % Insert of the sequence listed here: GGGAUUGGUGACGACAGCCG (tested as dual guide RNA, chemistry not given here) [CR003390]
Response: 4.31

Request: Name the recorded Avg % Insert of the sequence listed here: CUGCUCCUCCUCUGCCUUGC (tested as dual guide RNA, chemistry not given here) [CR003335]
Response: 4.73

Request: Name the recorded Avg % Insert of the sequence listed here: CUUCUCUACACCCAGGGCAC (tested as dual guide RNA, chemistry not given here) [CR003342]
Response: 1.19

Request: Name the recorded Avg % Insert of the sequence listed here: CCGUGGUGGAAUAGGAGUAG (tested as dual guide RNA, chemistry not given here) [CR003386]
Response: 2.94

* * *

- System: TTR
- TEST: TTR editing in primary human hepatocytes transfected with Spy Cas9 mRNA and dgRNAs (Table 9)
- Type: cell-based
- RUN CONDITIONS: dgRNA co-transfected with Spy Cas9 mRNA (SEQ ID NO:2)
QUANTITY: Avg % Insert (%)
Provide the reading as a plain figure in %.

Record excerpt, results attached:
SEQUENCE DATA	TARGET DESC	Avg % Insert [%]
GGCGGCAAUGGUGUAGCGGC (tested as dual guide RNA, chemistry not given here) [CR003378]	TTR	8.50
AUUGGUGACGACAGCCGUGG (tested as dual guide RNA, chemistry not given here) [CR003389]	TTR	41.47
CAUUGAUGGCAGGACUGCCU (tested as dual guide RNA, chemistry not given here) [CR003347]	TTR	41.33
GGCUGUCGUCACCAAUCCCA (tested as dual guide RNA, chemistry not given here) [CR003391]	TTR	15.20
UUUGACCAUCAGAGGACACU (tested as dual guide RNA, chemistry not given here) [CR003344]	TTR	22.40
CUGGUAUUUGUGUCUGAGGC (tested as dual guide RNA, chemistry not given here) [CR003341]	TTR	6.80

Here's the next entry for you.
Request: Report Avg % Insert from TTR testing of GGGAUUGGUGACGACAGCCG (tested as dual guide RNA, chemistry not given here) [CR003390]
Response: 18.73

* * *

Attribute: Avg % Deletion
- Test system: TTR
- TEST: TTR editing in primary cyno hepatocytes electroporated with Spy Cas9 protein and dgRNAs (Tables 10, 11)
- Format: cell-based, cynomolgus monkey
- RUN CONDITIONS: Table 10; primary cyno hepatocytes electroporated with Spy Cas9 protein (RNP) and dgRNAs

Record excerpt, results attached:
SEQUENCE DATA	QUANTITY	REPORTED RESULT
UCUAGAACUUUGACCAUCAG (tested as dual guide RNA, chemistry not given here) [CR003345]	Avg % Deletion	22.19%
CCCCUACUCCUAUUCCACCA (tested as dual guide RNA, chemistry not given here) [CR003385]	Avg % Deletion	4.12%
GAAAGGCUGCUGAUGACACC (tested as dual guide RNA, chemistry not given here) [CR003352]	Avg % Deletion	0.09%
CCUCUGCAUGCUCAUGGAAU (tested as dual guide RNA, chemistry not given here) [CR003370]	Avg % Deletion	0.12%
AAAGGCUGCUGAUGACACCU (tested as dual guide RNA, chemistry not given here) [CR003353]	Avg % Deletion	0.08%

Request: Name the recorded Avg % Deletion of the sequence listed here: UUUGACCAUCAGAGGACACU (tested as dual guide RNA, chemistry not given here) [CR003344]
Response: 1.91%

Request: Name the recorded Avg % Deletion of the sequence listed here: GCCGUGGUGGAAUAGGAGUA (tested as dual guide RNA, chemistry not given here) [CR003387]
Response: 0.17%

Request: Name the recorded Avg % Deletion of the sequence listed here: AGCCGUGGUGGAAUAGGAGU (tested as dual guide RNA, chemistry not given here) [CR005299]
Response: 0.26%

Request: Name the recorded Avg % Deletion of the sequence listed here: CUCUGCAUGCUCAUGGAAUG (tested as dual guide RNA, chemistry not given here) [CR003369]
Response: 0.25%

Request: Name the recorded Avg % Deletion of the sequence listed here: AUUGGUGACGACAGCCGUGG (tested as dual guide RNA, chemistry not given here) [CR003389]
Response: 0.78%

Request: Name the recorded Avg % Deletion of the sequence listed here: UGGACUGGUAUUUGUGUCUG (tested as dual guide RNA, chemistry not given here) [CR003340]
Response: 4.80%

Request: Name the recorded Avg % Deletion of the sequence listed here: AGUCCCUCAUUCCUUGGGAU (tested as dual guide RNA, chemistry not given here) [CR003392]
Response: 0.38%

Request: Name the recorded Avg % Deletion of the sequence listed here: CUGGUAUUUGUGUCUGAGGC (tested as dual guide RNA, chemistry not given here) [CR003341]
Response: 0.77%

Request: Name the recorded Avg % Deletion of the sequence listed here: AUAGGAGUAGGGGCUCAGCA (tested as dual guide RNA, chemistry not given here) [CR003383]
Response: 4.55%

Request: Name the recorded Avg % Deletion of the sequence listed here: UGUCUGUCUUCUCUCAUAGG (tested as dual guide RNA, chemistry not given here) [CR005307]
Response: 2.55%

Request: Name the recorded Avg % Deletion of the sequence listed here: GCAUGGGCUCACAACUGAGG (tested as dual guide RNA, chemistry not given here) [CR003362]
Response: 0.22%

Request: Name the recorded Avg % Deletion of the sequence listed here: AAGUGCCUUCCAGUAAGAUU (tested as dual guide RNA, chemistry not given here) [CR003368]
Response: 0.26%
